Exercise: state measured phosphorylation enrichment for each of the sequences provided.
# Target Or Test System: FGFR3 (UniProt P22607)
# Sequence (P22607 whole entry, looked up): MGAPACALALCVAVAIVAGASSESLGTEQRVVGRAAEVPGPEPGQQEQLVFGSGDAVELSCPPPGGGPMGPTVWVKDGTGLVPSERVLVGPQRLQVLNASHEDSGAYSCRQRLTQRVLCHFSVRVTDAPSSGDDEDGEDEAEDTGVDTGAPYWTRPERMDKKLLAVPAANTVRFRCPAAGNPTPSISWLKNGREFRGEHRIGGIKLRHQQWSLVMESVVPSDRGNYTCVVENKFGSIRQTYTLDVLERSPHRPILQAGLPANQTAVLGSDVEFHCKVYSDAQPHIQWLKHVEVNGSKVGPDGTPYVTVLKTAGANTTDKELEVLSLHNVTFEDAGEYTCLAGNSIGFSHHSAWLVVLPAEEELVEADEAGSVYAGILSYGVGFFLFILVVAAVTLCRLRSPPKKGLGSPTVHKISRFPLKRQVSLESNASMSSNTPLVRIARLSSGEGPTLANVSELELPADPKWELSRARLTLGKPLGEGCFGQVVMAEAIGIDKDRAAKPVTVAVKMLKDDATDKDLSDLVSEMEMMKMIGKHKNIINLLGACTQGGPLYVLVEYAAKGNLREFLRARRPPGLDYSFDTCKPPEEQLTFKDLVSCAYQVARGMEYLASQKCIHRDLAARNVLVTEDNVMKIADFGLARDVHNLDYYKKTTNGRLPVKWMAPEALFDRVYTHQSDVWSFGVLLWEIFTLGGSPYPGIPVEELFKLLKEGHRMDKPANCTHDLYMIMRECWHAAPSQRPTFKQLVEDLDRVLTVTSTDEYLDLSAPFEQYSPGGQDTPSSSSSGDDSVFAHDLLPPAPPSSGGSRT
# Assay Remarks: phosphorylation enrichment, bacterial display (enrichment ratio); higher = better substrate or ligand; peptides without Tyr show the background;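 further: 11-residue human phosphosite peptides and single-mutation variants displayed on the E. coli surface, counted by deep sequencing, each peptide's frequency after selection divided by its frequency in the unselected input library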;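 further: frequency after pTyr selection over input frequency; kinase dosed for 20-30% of maximal phosphorylation in three min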

Challenge: Data request, read-out phosphorylation enrichment, for EFISESCGEII [EZH2_Y641_Y641S]
Response given: 0.592

Challenge: Please do the same for RFVTRSIFNRE [HLA-DQB1_Y62_Y62S_YF] as well.
Response given: 0.711

Challenge: And ALHHPYGCDVE [ABL2_Y80_R78H] ?
Response given: 0.726

Challenge: Try DASENYFVMDS [TMEM240_Y77_T80M] next.
Response given: 7.01

Challenge: # repeat for STASGYSDVTD [DTX2_Y425]
Response given: 0.487

Challenge: And VKPENYRRPDI [VHL_Y175_L178P] ?
Response given: 0.526

Challenge: // same read-out, input: RRVPVYGGRGA [QDPR_Y16_L14P]
Response given: 0.627

Challenge: Entry HQNGMYGLHQD [SGSH_Y89] please
Response given: 0.516

Challenge: Could you do the same for EIIPFYGMSTF [FNDC3B_Y175_YF] , please?
Response given: 0.524

Challenge: Now consider DTLASYLDKVR [KRT12_Y139_R135T] and answer again.
Response given: 0.415

Challenge: Proceed to VSVVDYVEPSP [TXNRD2_Y70_A66S]
Response given: 0.629

Challenge: Note, next up: SGGLDYGMVGG [TNRC6B_Y1382_M1380L]
Response given: 0.537

Challenge: Try this sequence next: RRGMPYGGCGD [TGM1_Y312_R315C]
Response given: 0.573

Challenge: What about this sequence? CITIHYNFMCN [TP53_Y234_T230I_YF]
Response given: 0.886

Challenge: Another: TTGGFYSFGGG [KRT24_Y120_A115T_YF]
Response given: 0.446

Challenge: Param item: NAPNSYGRRPI [CDKN2A_Y44]
Response given: 0.81

Challenge: Entry to check: IVRSLYEDVED [VHL_Y185_L188V]
Response given: 0.674

Challenge: Request: FFLGAYDRFLP [SLC22A5_Y486_V481F_YF]
Response given: 0.782

Challenge: Try TCFDKYTGSTY [FN1_Y101_N104S] next.
Response given: 0.534

Challenge: What about this sequence? TRTEAYAVSSF
Response given: 0.396

Challenge: Input SERNNYSRVAN [CWC22_Y797]
Response given: 0.456

Challenge: And then SKAYAYVHFDS [PABPC5_Y149_G146A] , what is it?
Response given: 0.803

Challenge: One more sequence: IGCHAYGDQFR [IDH1_Y135_R132C_YF]
Response given: 0.659

Challenge: Same question for DGTIVCTGLET [USH2A_Y4487_Y4487C] please.
Response given: 0.636

Challenge: Continue with KFDLMYAKWAF [TUBA3E_Y399]
Response given: 0.866

Challenge: Proceed to GVVVPYEPPEV [TP53_Y220_S215G]
Response given: 0.581

Challenge: Next entry: NTGDYYDLYGG [PTPN11_Y63]
Response given: 13.8

FYI, the data here is from the supplement of paper PMC10065799.
